Assay: Tissue concentrations of vinorelbine and deacetylvinorelbine 4 h after oral vinorelbine in CES2-modified mice
Assay type: in vivo, mouse
Settings: male, mouse, colon, oral, 10 mg/kg, male wild-type mice, oral vinorelbine 10 mg/kg, read-out: Ccolon (colon concentration)
measured_property: concentration at 4 h (ng/g)

CCC1=C[C@@H]2CN(C1)Cc1c([nH]c3ccccc13)[C@@](C(=O)OC)(c1cc3c(cc1OC)N(C)[C@H]1[C@@](O)(C(=O)OC)[C@H](OC(C)=O)[C@]4(CC)C=CCN5CC[C@]31[C@@H]54)C2 [Vinorelbine, reference compound] :: 348

----------
Assay: Plasma pharmacokinetics of vinorelbine and deacetylvinorelbine after oral vinorelbine in CES2-modified mice
Format: in vivo, mouse
Conditions: mouse; male Ces2^–/– mice; oral vinorelbine 10 mg/kg; plasma; read-out: Cmax
measured_property: Cmax (ng/mL)

CCC1=C[C@@H]2CN(C1)Cc1c([nH]c3ccccc13)[C@@](C(=O)OC)(c1cc3c(cc1OC)N(C)[C@H]1[C@@](O)(C(=O)OC)[C@H](OC(C)=O)[C@]4(CC)C=CCN5CC[C@]31[C@@H]54)C2 [Vinorelbine, reference compound] :: 188

----------
Test: Tissue concentrations of vinorelbine and deacetylvinorelbine 4 h after i.v. vinorelbine in CES2-modified mice
Type: in vivo, mouse
Conditions: male, mouse, colon, intravenous, 10 mg/kg, male wild-type mice, i.v. vinorelbine 10 mg/kg, read-out: Ccolon (colon concentration)
measured_property: concentration at 4 h (ng/g)

CCC1=C[C@@H]2CN(C1)Cc1c([nH]c3ccccc13)[C@@](C(=O)OC)(c1cc3c(cc1OC)N(C)[C@H]1[C@@](O)(C(=O)OC)[C@H](OC(C)=O)[C@]4(CC)C=CCN5CC[C@]31[C@@H]54)C2 [Vinorelbine, reference compound] :: 2360

----------
Assay: Tissue concentrations of vinorelbine and deacetylvinorelbine 4 h after oral vinorelbine in CES2-modified mice
Type: in vivo, mouse
Conditions: male, mouse, small intestine tissue, oral, 10 mg/kg, male Ces2^–/–A mice, oral vinorelbine 10 mg/kg, read-out: CSI (small intestine tissue concentration)
measured_property: concentration at 4 h (ng/g)

CCC1=C[C@@H]2CN(C1)Cc1c([nH]c3ccccc13)[C@@](C(=O)OC)(c1cc3c(cc1OC)N(C)[C@H]1[C@@](O)(C(=O)OC)[C@H](OC(C)=O)[C@]4(CC)C=CCN5CC[C@]31[C@@H]54)C2 [Vinorelbine, reference compound] :: 18100

----------
Test: Tissue concentrations of vinorelbine and deacetylvinorelbine 4 h after oral vinorelbine in CES2-modified mice
Type: in vivo, mouse
Details: male, mouse, liver, oral, 10 mg/kg, male Ces2^–/–V mice, oral vinorelbine 10 mg/kg, read-out: Cliver (liver concentration)
measured_property: concentration at 4 h (ng/g)

CCC1=C[C@@H]2CN(C1)Cc1c([nH]c3ccccc13)[C@@](C(=O)OC)(c1cc3c(cc1OC)N(C)[C@H]1[C@@](O)(C(=O)OC)[C@H](OC(C)=O)[C@]4(CC)C=CCN5CC[C@]31[C@@H]54)C2 [Vinorelbine, reference compound] :: 8300

----------
Assay: Tissue concentrations of capecitabine and its metabolites 2 h after oral capecitabine in CES2-modified mice
Type: in vivo, mouse
Conditions: female, mouse, colon, oral, 500 mg/kg, female Ces2^–/– mice, oral capecitabine 500 mg/kg, read-out: Ccolon (colon concentration)
measured_property: concentration at 2 h (ng/g)

O=c1[nH]cc(F)c(=O)[nH]1 [5-FU, 5-fluorouracil, reference compound] :: 1830
CCCCCOC(=O)Nc1nc(=O)n([C@@H]2O[C@H](C)[C@@H](O)[C@H]2O)cc1F [Capecitabine, reference compound] :: 14300
C[C@H]1O[C@@H](n2cc(F)c(N)nc2=O)[C@H](O)[C@@H]1O :: 25700
